Target: Pyruvate dehydrogenase kinase 1 (PDK1) (Homo sapiens)
Sequence (Q15118 29-436): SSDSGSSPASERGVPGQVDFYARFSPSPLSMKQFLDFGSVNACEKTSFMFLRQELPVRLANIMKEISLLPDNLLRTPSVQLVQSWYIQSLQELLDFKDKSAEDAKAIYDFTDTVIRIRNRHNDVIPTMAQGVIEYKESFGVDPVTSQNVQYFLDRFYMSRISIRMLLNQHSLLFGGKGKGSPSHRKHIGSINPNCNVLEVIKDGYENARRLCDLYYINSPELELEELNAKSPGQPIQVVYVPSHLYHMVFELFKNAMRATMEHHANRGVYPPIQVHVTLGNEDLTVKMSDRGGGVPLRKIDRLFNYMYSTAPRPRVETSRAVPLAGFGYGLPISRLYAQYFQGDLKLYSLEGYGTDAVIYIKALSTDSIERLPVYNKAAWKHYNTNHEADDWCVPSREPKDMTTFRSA
Assay: ELISA-based in-well kinase assay: active PDK1 (Abcam) phosphorylating captured PDHA1 at Ser232
Format: biochemical

{"Smiles": "O=c1oc2ccccc2c(O)c1Cc1c(O)c2ccccc2oc1=O", "Experimental target": "Pyruvate dehydrogenase kinase 1 (PDK1) (Homo sapiens)", "Unit abbrev": "µM", "IC50": 19.4}
